Listed here: items and their measured growth.
Tested on: SF-268 CNS
Test: NCI-60 one-dose screen, 48 h (100 = growth as untreated, 0 = no growth, -100 = all killed)
Conditions: 10 µM unless noted
Compounds without any hit were thinned out: in the full panel of roughly 83,000, 20% have a hit.
Field format: number, assumed %, no unit text.

Use the examples below as a reference point.
compound | unit | growth
CCCCCCCCCCCCOc1ccc(C(=O)Oc2ccc(CSP3(=O)OCC4OC(n5cnc6c(N)ncnc65)C(F)C4OP(=O)(O)OCC4OC(n5ccc(=O)[nH]c5=O)C(F)C4O3)cc2)cc1 (centres undefined) | % | 107
CC(C)OC(=S)[S-].[Au+].c1ccc([PH+](c2ccccc2)c2ccccc2)cc1 | % | 18.2
CC1(C)N=C(N)N=C(N)N1c1ccc(CCCCc2ccc(S(=O)(=O)F)cc2)c(Cl)c1 | % | 25.6

In the following, a different compound is considered.
Exam item: Need growth, item `COC(=O)C(=[N+]=[N-])C(=O)OC`
Marked response: 106
